# Target entity: T1, IL-6/soluble IL-6 receptor complex (human, UniProt P05231 30-212; P08887 20-358, limits assumed)
# T1 construct: also called IL-6/sIL-6R complex; IL-6/sIL-6R
# Protocol details: ELISA, coated Fc fusion, IL-6 + sIL-6R titrated, anti-sIL-6R detection

Binder: sgp130(D1-D3)S2-Fc (Fc fusion, D4-D6 replaced by two GGGGS repeats; No tags; not shown: IgG-Fc part; its beginning is printed as 'SCD'; detected with an anti-human IgG (Fc) antibody) ELLDPCGYISPESPVVQLHSNFTAVCVLKEKCMDYFHVNANYIVWKTNHFTIPKEQYTIINRTASSVTFTDIASLNIQLTCNILTFGQLEQNVYGITIISGLPPEKPKNLSCIVNEGKKMRCEWDGGRETHLETNFTLKSEWATHKFADCKAKRDTPTSCTVDYSTVYFVNIEVWVEAENALGKVTSDHINFDPVYKVKPNPPHNLSVINSEELSSILKLTWTNPSIKSVIILKYNIQYRTKDASTWSQIPPEDTASTRSSFTVQDLKPFTEYVFRIRCMKEDGKGYWSDWSEEASGITYEDGGGGSGGGGS
binding result: binds

Binder: sgp130(D1-D3)S1-Fc (Fc fusion, D4-D6 replaced by one GGGGS repeat; No tags; not shown: IgG-Fc part; its beginning is printed as 'SCD'; detected with an anti-human IgG (Fc) antibody) ELLDPCGYISPESPVVQLHSNFTAVCVLKEKCMDYFHVNANYIVWKTNHFTIPKEQYTIINRTASSVTFTDIASLNIQLTCNILTFGQLEQNVYGITIISGLPPEKPKNLSCIVNEGKKMRCEWDGGRETHLETNFTLKSEWATHKFADCKAKRDTPTSCTVDYSTVYFVNIEVWVEAENALGKVTSDHINFDPVYKVKPNPPHNLSVINSEELSSILKLTWTNPSIKSVIILKYNIQYRTKDASTWSQIPPEDTASTRSSFTVQDLKPFTEYVFRIRCMKEDGKGYWSDWSEEASGITYEDGGGGS
binding result: binds

Binder: sgp130(D1-D3)S0-Fc (Fc fusion, No spacer between D3 and Fc; V5 and 6xHis tags are not present; also called sgp130(D1-D3)Fc; sgp130(D1-3)Fc; not shown: IgG-Fc part; its beginning is printed as 'SCD'; detected with an anti-human IgG (Fc) antibody) ELLDPCGYISPESPVVQLHSNFTAVCVLKEKCMDYFHVNANYIVWKTNHFTIPKEQYTIINRTASSVTFTDIASLNIQLTCNILTFGQLEQNVYGITIISGLPPEKPKNLSCIVNEGKKMRCEWDGGRETHLETNFTLKSEWATHKFADCKAKRDTPTSCTVDYSTVYFVNIEVWVEAENALGKVTSDHINFDPVYKVKPNPPHNLSVINSEELSSILKLTWTNPSIKSVIILKYNIQYRTKDASTWSQIPPEDTASTRSSFTVQDLKPFTEYVFRIRCMKEDGKGYWSDWSEEASGITYED
binding result: binds
